Assay: protein stability index of a GFP-peptide fusion (GPS, HEK-293T) (PSI 1-6); higher = more stable;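 further: 24-mer peptide tiles fused after GFP, lentivirally expressed, FACS-sorted into six equal bins by GFP/DsRed ratio, decoded by Illumina sequencing, PSI is the read-weighted mean bin number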
Settings: treatment: DMSO; c terminus: a fixed tail appended
Measured protein stability index of individual entries
readout.label: protein stability index

>  <residue.codes>
LFQSPLFAKAGDTLSGTCLLIANK [CARM1]

>  <readout.label>
protein stability index

>  <reported>
2.56

$$$$
>  <residue.codes>
ASKTVFFFFSSPGNNNGTSIEDGQ [BTBD1]

>  <readout.label>
protein stability index

>  <reported>
2.55

$$$$
>  <residue.codes>
AQFRLLSEVEELNMSLTALREKLL [TEKT4]

>  <readout.label>
protein stability index

>  <reported>
2.23

$$$$
>  <residue.codes>
RYEQGRFWPHLKASNWSTTGFGQG [HDAC6]

>  <readout.label>
protein stability index

>  <reported>
2.54

$$$$
>  <residue.codes>
TWAPKNKGGEERKAEGGEEDSLGC [IRX6]

>  <readout.label>
protein stability index

>  <reported>
5.5

$$$$
>  <residue.codes>
FYQLVWSALPFITYLENKGHRYPC [POP5]

>  <readout.label>
protein stability index

>  <reported>
2.88

$$$$
>  <residue.codes>
FVEEIKKLATQHKQLISQTKKKQW [ZMYND11]

>  <readout.label>
protein stability index

>  <reported>
2.73

$$$$
>  <residue.codes>
LSRLSLMAMPNGFHEDGPQGPGGD [PSD2]

>  <readout.label>
protein stability index

>  <reported>
4.89

$$$$
>  <residue.codes>
LVTLNDMKAKQEALVKEREKQLAK [FAM50A]

>  <readout.label>
protein stability index

>  <reported>
4.23

$$$$
>  <residue.codes>
AQRHRELYLRVELSDVQNPAISIT [HACD3]

>  <readout.label>
protein stability index

>  <reported>
2.16

$$$$
>  <residue.codes>
DIEDVFYKYGAIRDIDLKNRRGGP [SRSF1]

>  <readout.label>
protein stability index

>  <reported>
3.32

$$$$
>  <residue.codes>
YSIISLLLKDKVRERIQILKTSEV [PTPN9]

>  <readout.label>
protein stability index

>  <reported>
2.9

$$$$
>  <residue.codes>
FVLDENDNAPAVLHPRPDWEHSAP [PCDHGC5]

>  <readout.label>
protein stability index

>  <reported>
3.33

$$$$
>  <residue.codes>
QSKILKVIRKNIVKKCLELFSELA [HSP90AB1]

>  <readout.label>
protein stability index

>  <reported>
2.47

$$$$
>  <residue.codes>
QRSPLGGDVLHAHLDIWKSAAWMK [SPDEF]

>  <readout.label>
protein stability index

>  <reported>
2.61

$$$$
>  <residue.codes>
HADILAAVETRLSLLNMTFMKYVD [FBXO28]

>  <readout.label>
protein stability index

>  <reported>
2.84

$$$$
>  <residue.codes>
PVRAYDFLLKFLLVGDSDVGKGEI [RAB40B]

>  <readout.label>
protein stability index

>  <reported>
2.28

$$$$
>  <residue.codes>
SPPTRPVPGHRSERAIRTQPKQLI [SPRY1]

>  <readout.label>
protein stability index

>  <reported>
4.04

$$$$
>  <residue.codes>
SHYFKIIEDLRAQIFANTVDNARI [KRT18]

>  <readout.label>
protein stability index

>  <reported>
2.4

$$$$
>  <residue.codes>
LKNSNYESIQQTARSIAEQAHELA [PPTC7]

>  <readout.label>
protein stability index

>  <reported>
3.91

$$$$
>  <residue.codes>
TESSNTTIEDEDVKARKQEIIKVT [CAMK2D]

>  <readout.label>
protein stability index

>  <reported>
5.21

$$$$
>  <residue.codes>
QLVKKLNDSDHQSSTSPLMEGTPT [VPS39]

>  <readout.label>
protein stability index

>  <reported>
4.87

$$$$
>  <residue.codes>
ETLEASVGPRETEEKVRDLLWAKF [TOR1AIP2]

>  <readout.label>
protein stability index

>  <reported>
3.98

$$$$
>  <residue.codes>
ARPTEVLAGTQLLYAFFTRTHGDM [TRIB3]

>  <readout.label>
protein stability index

>  <reported>
2.43

$$$$
>  <residue.codes>
HLALHAASSGDLTCGVCALELGST [PLAGL1]

>  <readout.label>
protein stability index

>  <reported>
3.01

$$$$
>  <residue.codes>
ELKMRAIQAEERLDMEKRRCRQSL [LRRC45]

>  <readout.label>
protein stability index

>  <reported>
3.92

$$$$
>  <residue.codes>
HYLIFDLVTGGELFEDIVAREYYS [CAMK2A]

>  <readout.label>
protein stability index

>  <reported>
2.71

$$$$
>  <residue.codes>
LDQPVSAPPSPRDISMEIDSPENM [CCDC6]

>  <readout.label>
protein stability index

>  <reported>
5.47

$$$$
>  <residue.codes>
LSSRWKNWWIRGILTLTMISLFFL [CDS1]

>  <readout.label>
protein stability index

>  <reported>
2.54

$$$$
>  <residue.codes>
TSSVSCALDEAAAALTRMRAESTA [ANKRD17]

>  <readout.label>
protein stability index

>  <reported>
3.06

$$$$
>  <residue.codes>
RVLNSAKEKSSTVPIPTVNQYLYF [SOAT1]

>  <readout.label>
protein stability index

>  <reported>
2.29

$$$$
>  <residue.codes>
IDDLFAFVIKMPVMYRIGCLRDDV [CLPTM1]

>  <readout.label>
protein stability index

>  <reported>
3.07

$$$$
>  <residue.codes>
EKDRIKSFTTNEKAILEQNFRDLV [TRIM29]

>  <readout.label>
protein stability index

>  <reported>
3.53

$$$$
>  <residue.codes>
GEDCKLPPQPCATACKPVIRVPSV [KRT36]

>  <readout.label>
protein stability index

>  <reported>
3.3

$$$$
>  <residue.codes>
VSLGATGGPPAGPGGVYAGPEPPP [JUNB]

>  <readout.label>
protein stability index

>  <reported>
4.61

$$$$
>  <residue.codes>
DPSKLDSGKELKIDIIPNPQERTL [HSP90AB1]

>  <readout.label>
protein stability index

>  <reported>
5.15

$$$$
>  <residue.codes>
SGLQGLPECTRCGHGIVGTIVKAR [PDLIM4]

>  <readout.label>
protein stability index

>  <reported>
2.51

$$$$
>  <residue.codes>
KYEAQNIVNSTEESDDAFDTVTIP [IQUB]

>  <readout.label>
protein stability index

>  <reported>
5.27

$$$$
>  <residue.codes>
DCLAAWEEWLLVGTKQGHLLLYRI [VPS39]

>  <readout.label>
protein stability index

>  <reported>
2.92

$$$$
>  <residue.codes>
CQNKCRIALVENIPEGLNYSENAP [PLD5]

>  <readout.label>
protein stability index

>  <reported>
3.03

$$$$
>  <residue.codes>
SERDKRPEGYNLKDEEGRLRDPAT [PPP2R2B]

>  <readout.label>
protein stability index

>  <reported>
5.6

$$$$
>  <residue.codes>
IFQIGVLGFGPTYVVLAYTLPPAS [SOAT1]

>  <readout.label>
protein stability index

>  <reported>
2.97

$$$$
>  <residue.codes>
EPEDMETLEEKFSDVHPVALNFMK [CDKL4]

>  <readout.label>
protein stability index

>  <reported>
4.68

$$$$
>  <residue.codes>
QARHQLVLTAVDGGTPARSGTTLI [PCDHGC5]

>  <readout.label>
protein stability index

>  <reported>
3.18

$$$$
>  <residue.codes>
GGQDSFESIESYDSCDRLTQSWSS [ETS1]

>  <readout.label>
protein stability index

>  <reported>
3.68

$$$$
>  <residue.codes>
PRMLRESGHGDAHLQEYAGNFQGI [FATE1]

>  <readout.label>
protein stability index

>  <reported>
4

$$$$
>  <residue.codes>
GRCGPQAARAAGRDVAAEAVARSP [POMT2]

>  <readout.label>
protein stability index

>  <reported>
4

$$$$
>  <residue.codes>
GERPEEGVAGGLNRNQGLNRLMLA [TCF25]

>  <readout.label>
protein stability index

>  <reported>
3.88

$$$$
>  <residue.codes>
PFNQSTFNNVVEQNFKNRESYPED [DLC1]

>  <readout.label>
protein stability index

>  <reported>
4.62

$$$$
>  <residue.codes>
ANAHTYHINSISVNSDYETYMSAD [PPP2R2B]

>  <readout.label>
protein stability index

>  <reported>
3.81

$$$$
>  <residue.codes>
YYLCGFCPAELFTNTRSDLDVFGR [LUC7L3]

>  <readout.label>
protein stability index

>  <reported>
2.26

$$$$
>  <residue.codes>
NGGVVQVGELLPCKICGRTFFPVA [ZC2HC1A]

>  <readout.label>
protein stability index

>  <reported>
2.42

$$$$
>  <residue.codes>
DTVFRFDPRYNKWMQVASLNEKRT [KLHL13]

>  <readout.label>
protein stability index

>  <reported>
2.87

$$$$

// data source = the supplement of paper PMC10567573
